The entries below are paired with their reported growth.
System: OVCAR-5 ovarian
protocol-text: NCI-60 one-dose screen, 48 h (100 = growth as untreated, 0 = no growth, -100 = all killed)
test-context: 10 µM unless noted
Description: Growth inhibition of the OVCAR-5 human tumor cell line is measured as a screen for anti-cancer activity. Cells are grown in 96 well plates and exposed to the test compound for 48 hours. Compounds are tested at a single concentration, which is 10^-5 M for most compounds. The reported endpoint is percent growth (GI% or GIPRCNT), where numbers from 0 - 100% represent growth inhibition, and numbers from -100% - 0 represent cell death. For example, a value of 40 represents 60% growth inhibition. […]
The panel holds about 83,000 compounds, 20% with a hit somewhere; the sample as a whole holds those more often.
Please give a number only; it is taken to be in %.

Here is how some compounds turned out for growth.
# compound, quantitative-result
rows = [
    ("Cn1cc(-c2cc3nc(-c4c[nH]c5ccc(Cl)cc45)cc(N)n3n2)c2ccccc21", -89.2),
    ("CCOC(=O)C1=C(N)N(c2ccccc2)C2=C(C(=O)CC(C)(C)C2)C1c1cccc(Cl)c1Cl (stereo not given)", 87.6),
    ("COc1cc2c(c(OC)c1OC)C(=O)CC(c1cccc(NC(=O)c3cccc(NC(=O)[C@H](C)NC(=O)OC(C)(C)C)c3)c1)O2 (stereo not given in full)", 123),
    ("CN1CCN(/C(=N\\c2sc(-c3ccccc3)nc2-c2ccccc2)c2ccccc2)CC1", 70),
    ("Cc1ccccc1[C@H]1C(C(=O)c2ccc(Cl)cc2)C2(N[C@@H]1c1ccccc1)C(=O)Nc1ccc(Br)cc12 (stereo not given in full)", 5.07),
]

Read off the recorded growth for CC1(C)CC[C@]2(C(=O)O)CC[C@]3(C)C(=CCC4[C@@]5(C)C[C@@H](O)[C@@H]6OC(c7cccc(Br)c7)OC[C@@]6(C)C5CC[C@]43C)C2C1 (stereo not given in full)
67.5

Note down growth recorded for COc1ccc(NC(=O)[C@H](CO)NC(=O)OC(C)(C)C)cc1C(=O)Nc1cccc(C2CC(=O)c3c(cc(OC)c(OC)c3OC)O2)c1 (stereo not given in full)
113

In one line, give reported growth of the entry C=C1CCC2C3(C)COC(c4ccc(F)cc4)OC3CCC2(C)C1CC(O)C1=CCOC1=O (stereo not given) .
51

Report growth for CC12CC[C@@H]3[C@]4(C)COC(c5cn[nH]c5-c5cccc(Br)c5)O[C@@H]4CC[C@@]3(C)[C@@H]1CC(C1=CCOC1=O)O2 (stereo not given in full)
76.8

* * *

Test system: HCT-15 colon
protocol-text: NCI-60 one-dose screen, 48 h (100 = growth as untreated, 0 = no growth, -100 = all killed)
test-context: 10 µM unless noted
Compounds without any hit were thinned out: in the full panel of roughly 83,000, 20% have a hit.
Returns one of T or F; T when growth is >= 20%.

# compound, classification
data = [
    ("COc1ccc2[nH]c(O)c(N=NC(=O)COc3ccc(NC(=O)Nc4ccccc4)cc3)c2c1", "T"),
    ("COc1cc(/C=C/C(=O)c2ccc(C)cc2)ccc1Oc1nc(Nc2ccc(F)cc2)nc(N(C)C)n1", "F"),
    ("Cn1cc(NC(=O)c2cc(NC(=O)c3ccc(C#Cc4ccccc4)cc3)cn2C)cc1C(=O)NCCCN1CCOCC1", "F"),
    ("COc1ccc(-c2nc(SC(C)C)nc(NCCc3c[nH]c4ccccc34)c2C#N)cc1", "F"),
    ("Brc1ccc(-c2n(Cc3ccc4ccccc4c3)c(-c3ccccc3)c(-c3ccccc3)[n+]2Cc2ccc3ccccc3c2)cc1", "F"),
    ("S=c1c2ccccc2nc2n1CCc1c-2[nH]c2ccccc12", "T"),
    ("CC(=O)N1CCN(Cc2ccc3c(NNC(=O)c4cnccn4)nc4cc(F)ccc4n23)CC1", "T"),
    ("N/C(=N\\N=C\\c1ccc([N+](=O)[O-])cc1)c1c(N)nc(=S)[nH]c1-c1ccc(Cl)cc1Cl", "T"),
    ("COc1ccc2c(c1)c(-c1cc3nc(-c4cn(C)c5ncc(Br)cc45)cc(N)n3n1)cn2C", "F"),
    ("CCC(C)(C)c1ccc(OCCCCN2CCN(c3ccncc3)CC2)cc1", "F"),
]

# bool: growth of C=CC(=O)Nc1ccc(C)c(Oc2ccc(Cl)cc2)c1 >= 20%
T

Given the entry C=C1CC[C@@H]2[C@]3(C)COC(c4cn(-c5ccccc5)nc4-c4ccccc4)O[C@@H]3CC[C@@]2(C)[C@@H]1C/C=C1/C(=O)OC[C@H]1O (stereo partly drawn) , answer whether its growth meets or surpasses 20%.
F

Is growth at least 20%? Consider CN(C)c1nc(NCCNS(=O)(=O)c2ccc(C(=O)/C=C/c3ccc(C(F)(F)F)cc3)cc2)nc(Nc2ccc(F)cc2)n1
F

Exam item: decide whether the reported growth for Cn1cc(-c2cc(N)n3nc(-c4cn(C)c5ncc(Br)cc45)cc3n2)c2cc(Br)cnc21 is at least 20%.
F

For this compound, is measured growth 20% or higher? N#Cc1c(NCc2ccccc2)n[nH]c1Nc1ccccc1
T

Could you please find out whether C=C1CC[C@@H]2[C@]3(C)COC(c4ccco4)O[C@@H]3CC[C@@]2(C)[C@@H]1C/C=C1/C(=O)OCC1OC(C)=O (stereo partly drawn) has growth that meets 20% or exceeds it?
F

Determine whether measured growth meets or exceeds 20% for CCOC(=O)/C=C/c1cccc2c1C(=O)NC(C)(c1cc3cc(Br)ccc3oc1=O)N2 (stereo not drawn)
T

Test whether the compound CC(=O)Nc1cccc(Nc2nccc(N[C@@H](C)c3ccccc3)n2)c1 records growth of 20% or higher.
F
